What growth was measured for each of the following?
Tested on: NCI/ADR-RES ovarian
Assay: NCI-60 one-dose screen, 48 h (100 = growth as untreated, 0 = no growth, -100 = all killed)
Conditions: 10 µM unless noted
Description: Growth inhibition of the NCI/ADR-RES human […] tumor cell line is measured as a screen for anti-cancer activity. Cells are grown in 96 well plates and exposed to the test compound for 48 hours. Compounds are tested at a single concentration, which is 10^-5 M for most compounds. The reported endpoint is percent growth (GI% or GIPRCNT), where numbers from 0 - 100% represent growth inhibition, and numbers from -100% - 0 represent cell death. For example, a value of 40 represents 60% growth inhibition. […]
The panel holds about 83,000 compounds, 20% with a hit somewhere; the sample as a whole holds those more often.
API: value field is a number in %; no unit string.

Query block: Report growth for `Nc1c(C(=O)Nc2cccc3cnccc23)sc2nc3c(cc12)CN(Cc1ccccc1)CC3` please.
Result block: 112

Query block: Then what about the compound `C=C(C)[C@@H]1CC[C@]2(C(=O)N3CCN(C)CC3)CC[C@]3(C)[C@H](CC[C@@H]4[C@@]5(C)CC[C@H](OCCC#N)C(C)(C)[C@@H]5CC[C@]43C)[C@@H]12` ?
Result block: 45.8

Query block: Then what about the compound `COc1cc(CC(=O)n2ncc3ccc(N)cc32)cc(OC)c1OC` ?
Result block: 90.1

Query block: Then what about the compound `CCCCCN1C=C/C(=C\C(=O)N2CCCc3ccccc32)c2ccccc21` ?
Result block: 107

Query block: Then what about the compound `C=C(C)[C@@H]1CC[C@]2(C(=O)N[C@H](CO)Cc3ccccc3)CC[C@]3(C)[C@H](CC[C@@H]4[C@@]5(C)CCCNC(C)(C)[C@@H]5CC[C@]43C)[C@@H]12` ?
Result block: -67.6

Query block: Then what about the compound `CN1C(N2CCN(S(=O)(=O)c3ccccc3)CC2)=NS(=O)(=O)c2ccccc21` ?
Result block: 99.7

Query block: Then what about the compound CCSCC1CC(O)(c2ccccc2)CC(c2ccc(F)cc2)O1 (configuration not stated) ?
Result block: 24.6

Query block: Then what about the compound `COc1ccc(/C=C/c2nc(Nc3ccc(Cl)cc3)c3ccccc3n2)cc1` ?
Result block: 65.7

Query block: Then what about the compound OC(c1ccc(F)c(C(F)(F)F)c1)c1cnccc1NC1CCCCC1 (configuration not stated) ?
Result block: 74.7

Query block: Then what about the compound `COc1cc2nc(-c3ccc(C(F)(F)F)cc3)cc(OCCN3CCCCC3)c2cc1OC` ?
Result block: 63.1

Query block: Then what about the compound `O=C(CCN1CCCC1)Nc1ccc2c(Nc3ccc(F)cc3)c3ccccc3nc2c1` ?
Result block: 33.8

Query block: Then what about the compound `N=C(N)c1ccc(OCCCCCCCCCCOc2ccc(C(=N)N)cc2)cc1` ?
Result block: 87.1

Query block: Then what about the compound `O=C(Cc1ccccc1)NNc1nc(Cl)nc(N2CCN(C(c3ccccc3)c3ccccc3)CC2)n1` ?
Result block: 102

Query block: Then what about the compound NC1[C@H](c2c[nH]c3ccccc23)c2c([nH]c3ccccc23)[C@H]1c1c[nH]c2ccccc12 (some centres not stated) ?
Result block: 81.7

Query block: Then what about the compound `COc1ccc2[nH]c(O)c(/C=c3/cc4c(c(-c5ccc(F)cc5)n3)=Nc3ccccc3-4)c2c1` ?
Result block: 52.1

Query block: Then what about the compound `COc1ccc(N2CCN(c3ccc(NC4=C(Cl)C(=O)c5ncccc5C4=O)cc3)CC2)cc1` ?
Result block: 83

Query block: Then what about the compound `COc1cc2c(=O)n(CCCN(C)C)c3c4cc5c(cc4ccc3c2cc1OC)OCO5` ?
Result block: 53.5

Query block: Then what about the compound `COc1ccc(NC(N)=NCCCOc2ccc(F)cc2)cc1` ?
Result block: 99

Query block: Then what about the compound CC1=C(C(=O)/C=C/c2ccc(N(C)C)cc2)C(c2ccccc2)NC(=S)N1 (configuration not stated) ?
Result block: 100

Query block: Then what about the compound `Cc1cc2nc3c4cc([N+](=O)[O-])ccc4n(CCN(C)C)c3nc2cc1C` ?
Result block: -13.4

Query block: Then what about the compound COC(=O)C(OC(C)=O)C(OC(C)=O)c1ccc(OC)c(OC)c1 (configuration not stated) ?
Result block: 94.1

Query block: Then what about the compound `NC1=NN=C(N)C1=Cc1cc2ccccc2n2nnnc12` ?
Result block: 105

Query block: Then what about the compound `O=C1c2ccc3c4c(ccc(c24)C(=O)N1CCCNCc1ccccc1F)C(=O)N(CCCNCc1ccccc1F)C3=O` ?
Result block: -18.4

Query block: Then what about the compound `C=C1C(=O)O[C@H]2[C@H]1CC/C(CNS(=O)(=O)c1cccc3ccccc13)=C\CC[C@@]1(C)O[C@@H]21` ?
Result block: 74.3

Query block: Then what about the compound `CC(=O)Nc1ccc(-n2cnc3cc(-c4ccc(OCCN5CCCCC5)cc4)ccc32)cc1` ?
Result block: 97.2

Query block: Then what about the compound C=C1C(=O)O[C@H]2[C@H]1CC/C(COC(=O)NCC(C)c1ccc(CC(C)C)cc1)=C\CC[C@@]1(C)O[C@@H]21 (some centres not stated) ?
Result block: 28.6

Query block: Then what about the compound `COc1cc(/C=C\c2cc(OC)c(OC)c(OC)c2)cc(N)c1OC` ?
Result block: 69.7

Query block: Then what about the compound `O=C1C=CC(=O)N1c1cccc(Cl)c1` ?
Result block: 98.3

Query block: Then what about the compound `COc1ccc(-c2cnc3c(-c4cccc5cnccc45)cnn3c2)cc1` ?
Result block: 56.3

Query block: Then what about the compound `COc1cc2nc(-c3ccc(C(F)(F)F)cc3)cc(OCCCN3CCCC3)c2cc1OC` ?
Result block: 46.4

Query block: Then what about the compound COc1ccc(C(=O)C2C(C#N)C(C#N)C3C=Cc4ccccc4N32)cc1 (configuration not stated) ?
Result block: -7.8

Query block: Then what about the compound `C#CCNC(=O)[C@H](Cc1ccccc1)NC(=O)[C@]12CC[C@@H](C(=C)C)[C@@H]1[C@H]1CC[C@@H]3[C@@]4(C)CCC(=O)C(C)(C)[C@@H]4CC[C@@]3(C)[C@]1(C)CC2` ?
Result block: 79.8

Query block: Then what about the compound `NC(=NCCCOc1ccc(F)cc1)Nc1ccc(Cl)cc1` ?
Result block: 77.3

Query block: Then what about the compound `O=C(NCCc1ccccc1)Nc1ccc2cc3ccc(NC(=O)NCCc4ccccc4)cc3nc2c1` ?
Result block: 105

Query block: Then what about the compound `CCOc1ccc(/C=N/Nc2cc(C)nc3ccc(Br)cc23)cc1` ?
Result block: 81.8

Query block: Then what about the compound `CC1(C)NCCC[C@]2(C)[C@H]3CC[C@@H]4[C@H]5[C@H](C(=O)/C=C/c6ccco6)CC[C@]5(CO)CC[C@@]4(C)[C@]3(C)CC[C@@H]12` ?
Result block: 95.2

Query block: Then what about the compound `CCCCNC(=O)Oc1ccc(/C(=C(\C)c2ccccc2)c2ccc(OCCN3CCCCC3)cc2)cc1` ?
Result block: 63.1

====

tested on: SF-295 CNS; assay: NCI-60 one-dose screen, 48 h; settings: 10 µM unless noted
About 83,000 compounds went through this panel and 20% of them were active in at least one assay; those are over-represented in the sample as a whole. Active and inactive are the calls of the source. How the source made its calls: active means growth percent below 10; inactive means the rest.
Returns: one label drawn from active, inactive

Query block: Please indicate how the test categorized `N#C/C(=C\c1ccc([N+](=O)[O-])s1)c1nc2cc(Cl)ccc2s1` .
Result block: inactive

Query block: Then what about the molecule `COc1cc2c(=O)n(CCN(C)C)c3c4cc5c(cc4ccc3c2cc1OC)OCO5` ?
Result block: active

Query block: Then what about the molecule `C=C(C)[C@@H]1CC[C@]2(C(=O)N3CCN(C)CC3)CC[C@]3(C)[C@H](CC[C@@H]4[C@@]5(C)C/C(=C/c6cccnc6)C(=O)C(C)(C)[C@@H]5CC[C@]43C)[C@@H]12` ?
Result block: inactive

Query block: Then what about the molecule `Cc1c(C)c([N+](=O)[O-])c(C)c([N+](=O)[O-])c1C` ?
Result block: inactive

====

Tested on: SF-539 CNS
Test: NCI-60 one-dose screen, 48 h
Settings: 10 µM unless noted
Experimental: Cells are grown in 96 well plates and exposed to the test compound for 48 hours. Compounds are tested at a single concentration, which is 10^-5 M for most compounds. The reported endpoint is percent growth (GI% or GIPRCNT), where numbers from 0 - 100% represent growth inhibition, and numbers from -100% - 0 represent cell death. For example, a value of 40 represents 60% growth inhibition. A value of 0 means no net growth occurred over the course of the experiment. […]
The panel holds about 83,000 compounds, 20% with a hit somewhere; the sample as a whole holds those more often. Active and inactive are the calls of the source. The calls were made as follows: active = growth percent below 10; inactive = the rest.
Returns: one label drawn from yes (1) = active, no (0) = inactive

Query block: Please indicate how the test categorized `Cc1cccc(NC(=O)Nc2ccc(-c3ccc4c(c3)NC(=O)/C4=C\c3ccc[nH]3)cc2)c1` .
Result block: no (0)

Query block: Then what about the compound `COc1cccc(-c2nc3occn3c2-c2ccnc(NCCNS(=O)(=O)c3ccc(C(F)(F)F)cc3)n2)c1` ?
Result block: no (0)

Query block: Then what about the compound `N#Cc1c(-c2ccccc2)nc2c(c(-c3ccccc3)nn2-c2ccccc2)c1-c1ccc(O)cc1` ?
Result block: no (0)

Query block: Then what about the compound `COc1ccc(C(=O)CC#N)cc1` ?
Result block: no (0)

Query block: Then what about the compound `O=C1CC(=O)OC(c2ccc([N+](=O)[O-])cc2)O1` ?
Result block: yes (1)

Query block: Then what about the compound `Cc1cc2nc3c4ccc(Br)cc4n(CCN(C)C)c3nc2cc1C` ?
Result block: no (0)

Query block: Then what about the compound `N#Cc1cc(-c2nc3ccccc3s2)c(=O)n(NS(=O)(=O)c2ccccc2)c1N` ?
Result block: no (0)

Query block: Then what about the compound COc1cc(NC(C)CCCNC(=O)CCC(=O)NCCCNCCCCCCCCCCNCCCNC(=O)CCC(=O)NCCCC(C)Nc2cc(OC)cc3cccnc23)c2ncccc2c1 (centres undefined) ?
Result block: no (0)

Query block: Then what about the compound `COCCCN1CC(O)=C(c2nc(-c3ccc(C)cc3)cs2)C1=N` ?
Result block: no (0)
